From: the supplement of paper PMC12636033

Form field: PBM 8-mer E-score (one value per entry).
Test system: muMax20 (Max(13-93) K31hArg/K57hArg, M65Nle)
Assay: PBM 8-mer E-score (E-score (rank enrichment, -0.5 to 0.5)); higher = stronger preferential binding
Over roughly 33,000 sequences, “E-score (rank enrichment, -0.5 to 0.5)” has its median near -0.0068; the highest 2% begin near 0.24. This is one part of a sample in which the highest values are shown more often than they occur.
// return just the number, without any unit appended

Recorded PBM 8-mer E-score, per entry:
| MONOMER SEQUENCE | TEST VALUE |
| --- | --- |
| AGCCTCAA | -0.0979 |
| AATATTAT | 0.25 |
| CACGTGTA | 0.444 |
| TGTGGTAA | 0.244 |
| AATGGTAG | 0.0638 |
| AATACACA | 0.308 |
| AATAATGC | 0.187 |
| CATAATGA | 0.0649 |
| GCTCCCCA | 0.128 |
| AATGTTGA | -0.00564 |

# input for lookup
Looking up CATAAATC , I see its PBM 8-mer E-score listed as 0.0804
